// provenance: PubChem BioAssay AID2060883

Tested on: 843782-103-R-J1-PDC complex spheroid viability
test description: Anticancer human tumor 843782-103-R-J1-PDC patient-derived lung adenocarcinoma cell line growth inhibition [RAS]
assay setup: second compound 0.0316 µM; first compound 1 µM; stronger effect = lower value
From the text: RAS pathway inhibitors in Combinations in Complex Spheroids A high-throughput screen of multi-cell type tumor spheroids was designed to identify active combinations of RAS pathway inhibitors and targeted small molecules. Complex spheroids include a stromal component modeled by human endothelial cells (HUVEC) and fibroblasts modeled by human mesenchymal stem cells (MSCs). […] Compounds. […] If the clinical Cmax for an agent had not been determined, the highest concentration tested was 10 microM. […]
Items are presented alongside their recorded viability, T/C.
measured attribute: viability, T/C (%)

compound="C[C@@H](NC(=O)c1ncnc(N)c1Cl)c1ncc(C(=O)Nc2cc(C(F)(F)F)c(Cl)cn2)s1 + C#Cc1c(F)ccc2cc(O)cc(-c3ncc4c(N5CC6CCC(C5)N6)nc(OCC56CCCN5CC(F)C6)nc4c3F)c12" assay_result=101
compound="CCC(CC)c1cc(NC2CCC(N)C2)n2nccc2n1 (stereo not drawn) + C#Cc1c(F)ccc2cc(O)cc(-c3ncc4c(N5CC6CCC(C5)N6)nc(OCC56CCCN5CC(F)C6)nc4c3F)c12" assay_result=108
compound="C=CC(=O)Nc1cc(Nc2nccc(-c3cn(C)c4ccccc34)n2)c(OC)cc1N(C)CCN(C)C + C#Cc1c(F)ccc2cc(O)cc(-c3ncc4c(N5CC6CCC(C5)N6)nc(OCC56CCCN5CC(F)C6)nc4c3F)c12" assay_result=55.4

###

System: 843782-103-R-J1-PDC complex spheroid viability
test description: Anticancer human tumor 843782-103-R-J1-PDC cell line growth inhibition [RAS];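 also: viability read after seven days of compound exposure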
assay setup: curve of first compound; second compound 0.000949 µM
pIC50: −log10 of the molar value.
measured attribute: pIC50

molecule="CCc1c2c(nc3ccc(O)cc13)-c1cc3c(c(=O)n1C2)COC(=O)[C@]3(O)CC + CCn1c(-c2cccnc2C(C)OC)c2c3cc(ccc31)N1CCOC(CC(NC(=O)C(C(C)C)N(C)C(=O)C3(F)CCN(C(=O)C#CC(C)(C)N(C)C)CC3)C(=O)N3CCCC(N3)C(=O)OCC(C)(C)C2)C1" assay_result=8.83
molecule="CC(Nc1ccc2c(c1)OCCn1cc(N3C(=O)OCC3C(F)F)nc1-2)C(N)=O (configuration not stated) + CCn1c(-c2cccnc2C(C)OC)c2c3cc(ccc31)N1CCOC(CC(NC(=O)C(C(C)C)N(C)C(=O)C3(F)CCN(C(=O)C#CC(C)(C)N(C)C)CC3)C(=O)N3CCCC(N3)C(=O)OCC(C)(C)C2)C1" assay_result=7.45

###

System: 843782-103-R-J1-PDC complex spheroid viability
test description: Anticancer human tumor 843782-103-R-J1-PDC cell line growth inhibition [RAS];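 also: viability read after seven days of compound exposure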
assay setup: second compound 1 µM; first compound 0.00316 µM; stronger effect = lower value
Items are presented alongside their recorded viability, T/C.
measured attribute: viability, T/C (%)

compound="CCN1CCN(Cc2ccc(Nc3ncc(F)c(-c4cc(F)c5nc(C)n(C(C)C)c5c4)n3)nc2)CC1 + C=CC(=O)N1CCN(c2nc(OCC3CCCN3C)nc3c(F)c(-c4nc(N)cc(C)c4C(F)(F)F)c(Cl)cc23)C(C)C1" measured_attribute="viability, T/C" assay_result=91.1
compound="C=CC(=O)Nc1cc(Nc2nccc(-c3cn(C)c4ccccc34)n2)c(OC)cc1N(C)CCN(C)C + C#Cc1c(F)ccc2cc(O)cc(-c3ncc4c(N5CC6CCC(C5)N6)nc(OCC56CCCN5CC(F)C6)nc4c3F)c12" measured_attribute="viability, T/C" assay_result=97
compound="CC(C)n1nc(-c2ccc3oc(N)nc3c2)c2c(N)ncnc21 + C=CC(=O)N1CCN(c2nc(OCC3CCCN3C)nc3c(F)c(-c4nc(N)cc(C)c4C(F)(F)F)c(Cl)cc23)C(C)C1" measured_attribute="viability, T/C" assay_result=62.2
compound="C=CC(=O)Nc1cc(Nc2nccc(-c3cn(C)c4ccccc34)n2)c(OC)cc1N(C)CCN(C)C + C=CC(=O)N1CCN(c2nc(OCC3CCCN3C)nc3c(F)c(-c4nc(N)cc(C)c4C(F)(F)F)c(Cl)cc23)C(C)C1" measured_attribute="viability, T/C" assay_result=90.3
compound="O=C(c1ccc(F)c(F)c1Nc1ccc(I)cc1F)N1CC(O)([C@@H]2CCCCN2)C1 + C#Cc1c(F)ccc2cc(O)cc(-c3ncc4c(N5CC6CCC(C5)N6)nc(OCC56CCCN5CC(F)C6)nc4c3F)c12" measured_attribute="viability, T/C" assay_result=96
compound="O=C(c1ccc(F)c(F)c1Nc1ccc(I)cc1F)N1CC(O)([C@@H]2CCCCN2)C1 + C=CC(=O)N1CCN(c2nc(OCC3CCCN3C)nc3c(F)c(-c4nc(N)cc(C)c4C(F)(F)F)c(Cl)cc23)C(C)C1" measured_attribute="viability, T/C" assay_result=88.8
compound="CC(C)n1nc(-c2ccc3oc(N)nc3c2)c2c(N)ncnc21 + C#Cc1c(F)ccc2cc(O)cc(-c3ncc4c(N5CC6CCC(C5)N6)nc(OCC56CCCN5CC(F)C6)nc4c3F)c12" measured_attribute="viability, T/C" assay_result=81.7
compound="Nc1ccn(C2OC(CO)C(O)C2(F)F)c(=O)n1 (stereo unspecified) + C=CC(=O)N1CCN(c2nc(OCC3CCCN3C)nc3c(F)c(-c4nc(N)cc(C)c4C(F)(F)F)c(Cl)cc23)C(C)C1" measured_attribute="viability, T/C" assay_result=93
compound="CCN1CCN(Cc2ccc(Nc3ncc(F)c(-c4cc(F)c5nc(C)n(C(C)C)c5c4)n3)nc2)CC1 + C#Cc1c(F)ccc2cc(O)cc(-c3ncc4c(N5CC6CCC(C5)N6)nc(OCC56CCCN5CC(F)C6)nc4c3F)c12" measured_attribute="viability, T/C" assay_result=105
compound="C=CC(=O)N1CCN(c2nc(OCC3CCCN3C)nc3c(F)c(-c4nc(N)cc(C)c4C(F)(F)F)c(Cl)cc23)C(C)C1 (stereo unspecified) + C#Cc1c(F)ccc2cc(O)cc(-c3ncc4c(N5CC6CCC(C5)N6)nc(OCC56CCCN5CC(F)C6)nc4c3F)c12" measured_attribute="viability, T/C" assay_result=81
compound="Nc1ccn(C2OC(CO)C(O)C2(F)F)c(=O)n1 (stereo unspecified) + C#Cc1c(F)ccc2cc(O)cc(-c3ncc4c(N5CC6CCC(C5)N6)nc(OCC56CCCN5CC(F)C6)nc4c3F)c12" measured_attribute="viability, T/C" assay_result=110

###

Items are presented alongside their recorded viability, T/C.
Test system: 843782-103-R-J1-PDC complex spheroid viability
test description: Anticancer human tumor 843782-103-R-J1-PDC cell line growth inhibition [RAS];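 also: viability read after seven days of compound exposure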
assay setup: second compound 0.000949 µM; first compound 0.003 µM; stronger effect = lower value
measured attribute: viability, T/C (%)

compound="CC1(C)CCC(Nc2ncc(C(F)(F)F)c(-c3c[nH]c4c(P(C)(C)=O)c(C#N)ccc34)n2)CN1 (centres undefined) + CCn1c(-c2cc(N3CCN(C)CC3)cnc2C(C)OC)c2c3cc(ccc31)-c1csc(n1)CC(NC(=O)C1CC1C)C(=O)N1CCCC(N1)C(=O)OCC(C)(C)C2" assay_result=68.5
compound="CC1(C)CCC(Nc2ncc(C(F)(F)F)c(-c3c[nH]c4c(P(C)(C)=O)c(C#N)ccc34)n2)CN1 (centres undefined) + CCn1c(-c2cccnc2C(C)OC)c2c3cc(ccc31)N1CCOC(CC(NC(=O)C(C(C)C)N(C)C(=O)C3(F)CCN(C(=O)C#CC(C)(C)N(C)C)CC3)C(=O)N3CCCC(N3)C(=O)OCC(C)(C)C2)C1" assay_result=45.2
compound="CCc1c2c(nc3ccc(O)cc13)-c1cc3c(c(=O)n1C2)COC(=O)[C@]3(O)CC + CCn1c(-c2cc(N3CCN(C)CC3)cnc2C(C)OC)c2c3cc(ccc31)-c1csc(n1)CC(NC(=O)C1CC1C)C(=O)N1CCCC(N1)C(=O)OCC(C)(C)C2" assay_result=21.8
compound="CCc1c2c(nc3ccc(O)cc13)-c1cc3c(c(=O)n1C2)COC(=O)[C@]3(O)CC + CCn1c(-c2cccnc2C(C)OC)c2c3cc(ccc31)N1CCOC(CC(NC(=O)C(C(C)C)N(C)C(=O)C3(F)CCN(C(=O)C#CC(C)(C)N(C)C)CC3)C(=O)N3CCCC(N3)C(=O)OCC(C)(C)C2)C1" assay_result=23.5

###

Tested on: 843782-103-R-J1-PDC complex spheroid viability
test description: Anticancer human tumor 843782-103-R-J1-PDC cell line growth inhibition [RAS];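 also: viability read after seven days of compound exposure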
assay setup: compound 0.01 µM; stronger effect = lower value
Items are presented alongside their recorded viability, T/C.
measured attribute: viability, T/C

compound=C=CC(=O)Nc1cc(Nc2nccc(-c3cn(C)c4ccccc34)n2)c(OC)cc1N(C)CCN(C)C measured_attribute="viability, T/C" assay_result="99.7% [middle of 4 runs]"
compound=CC(C)n1nc(-c2ccc3oc(N)nc3c2)c2c(N)ncnc21 measured_attribute="viability, T/C" assay_result="72.3% [middle of 4 runs]"
compound=O=C(c1ccc(F)c(F)c1Nc1ccc(I)cc1F)N1CC(O)([C@@H]2CCCCN2)C1 measured_attribute="viability, T/C" assay_result="93.1% [middle of 4 runs]"
compound=CCN1CCN(Cc2ccc(Nc3ncc(F)c(-c4cc(F)c5nc(C)n(C(C)C)c5c4)n3)nc2)CC1 measured_attribute="viability, T/C" assay_result="97.8% [middle of 4 runs]"
compound="Nc1ccn(C2OC(CO)C(O)C2(F)F)c(=O)n1 (stereo not given)" measured_attribute="viability, T/C" assay_result="101% [middle of 4 runs]"
